Reported melting point is given for each of the following compounds.
# Settings: a range is the spread between reports
Assay Metric: melting point

{"Compound": "c1cnccn1", "Assay Metric": "melting point", "Result": "53 to 55 °C"}
{"Compound": "C=C(CC)CC", "Assay Metric": "melting point", "Result": "-132 °C"}
{"Compound": "C1CC[C@H]2CCCC[C@H]2C1", "Assay Metric": "melting point", "Result": "-43 to -42.9 °C"}
{"Compound": "C=C(Br)CC", "Assay Metric": "melting point", "Result": "-133 °C"}
{"Compound": "COP(=O)(NC(C)=O)SC (stereo not drawn)", "Assay Metric": "melting point", "Result": "88 to 89 °C"}
{"Compound": "CCCCCCCBr", "Assay Metric": "melting point", "Result": "-58 to -56 °C"}
{"Compound": "OCC(F)(F)C(F)(F)C(F)(F)CO", "Assay Metric": "melting point", "Result": "78 to 79.5 °C"}
{"Compound": "COc1ccc2c(c1OC)C(=O)OC2", "Assay Metric": "melting point", "Result": "101 to 102 °C"}
{"Compound": "CCCc1ccc(O)cc1", "Assay Metric": "melting point", "Result": "21 to 22 °C"}
{"Compound": "N#Cc1ccc(I)cc1", "Assay Metric": "melting point", "Result": "125 to 126 °C"}
{"Compound": "Oc1c(Cl)cc(Cl)c(Cl)c1Cc1c(O)c(Cl)cc(Cl)c1Cl", "Assay Metric": "melting point", "Result": "164 to 166 °C"}
{"Compound": "COC(=O)c1cccc(O)c1", "Assay Metric": "melting point", "Result": "71 to 74 °C"}
{"Compound": "CC(C)O", "Assay Metric": "melting point", "Result": "-90 to -88 °C"}
{"Compound": "Cc1ccccn1", "Assay Metric": "melting point", "Result": "-70 to -66.7 °C"}
{"Compound": "Ic1cccc(I)c1", "Assay Metric": "melting point", "Result": "36 to 40.4 °C"}
{"Compound": "O=C(C(=O)c1ccccc1)c1ccccc1", "Assay Metric": "melting point", "Result": "94.5 to 95 °C"}
{"Compound": "N#CCc1ccccc1", "Assay Metric": "melting point", "Result": "-24 to -23.8 °C"}
{"Compound": "N#CCCC(Br)(C#N)CBr (stereo not drawn)", "Assay Metric": "melting point", "Result": "50 to 52 °C"}

----------
# Settings: a range is the spread between reports
melting point: recorded values

{"Compound": "Cc1ccc(C)c(C)c1", "melting point": "-44 to -43.8 °C"}
{"Compound": "CN1CCC(=C2c3ccccc3C=Cc3ccccc32)CC1", "melting point": "112 to 113 °C"}
{"Compound": "Nc1ccc(C2CCCCC2)cc1", "melting point": "53 to 54.5 °C"}
{"Compound": "CC(Cl)(Cl)Cl", "melting point": "-33 to -30 °C"}
{"Compound": "O=C(O)C=Cc1ccccc1C(F)(F)F", "melting point": "202 to 206 °C"}
{"Compound": "O=Cc1cccc(C=O)c1", "melting point": "87.8 to 89.5 °C"}
{"Compound": "NCc1cccnc1", "melting point": "-21.1 to -21 °C"}
{"Compound": "CC(=O)Oc1ccccc1OC(C)=O", "melting point": "64 to 64.5 °C"}
{"Compound": "Oc1ccc(Cl)c(O)c1", "melting point": "106 to 107 °C"}
{"Compound": "Cc1ccccc1Br", "melting point": "-28 to -27 °C"}
{"Compound": "O=C(c1ccccc1)C(Cl)Cl", "melting point": "20.5 to 21 °C"}
{"Compound": "Clc1ccc2cc[nH]c2c1", "melting point": "89 to 90 °C"}
{"Compound": "Cc1cc(O)cc(O)c1", "melting point": "107 to 108 °C"}
{"Compound": "CCOC(=O)Cc1ccccc1", "melting point": "-29.4 to -29 °C"}
{"Compound": "CN", "melting point": "-93.4 to -93 °C"}
{"Compound": "CCC(C)CC(O)CC (configuration not stated)", "melting point": "-91.2 to -91 °C"}
{"Compound": "CC(=O)c1ccc(C#N)cc1", "melting point": "57 to 59 °C"}
{"Compound": "CC1(C)CC=CCC1", "melting point": "-74.4 to -74 °C"}
{"Compound": "CCOc1ccc(NC(C)=O)cc1", "melting point": "134 to 138 °C"}
{"Compound": "COc1cccc(OC)c1O", "melting point": "54 to 56.5 °C"}
{"Compound": "O=C(c1ccc(Cl)cc1)c1ccc(Cl)cc1", "melting point": "145 to 148 °C"}
{"Compound": "Nc1ccc(S(=O)(=O)Nc2nccs2)cc1", "melting point": "200 to 202 °C"}

The reported measurements were obtained from a melting point compilation (Tetko et al.).
